# Test system: HL-60(TB) leukemia
# MEASUREMENT PROTOCOL: NCI-60 one-dose screen, 48 h
# CONDITION DETAILS: 10 µM unless noted
Compounds without any hit were thinned out: in the full panel of roughly 83,000, 20% have a hit. Active and inactive are the calls of the source. The calls were made as follows: active = growth percent below 10; inactive = the rest.
Write down the outcome that applies. Available outcomes: active, inactive

Solved cases (10 shown):
Fc1ccc(-c2cn3c(nc4ccccc43)c(-c3ccccc3)n2)cc1	inactive
C#COc1cccc(Nc2ncnc3ncc(NC(=O)CCl)cc23)c1	active
COc1cc(-c2cc(/C=C3\CCCCC3=O)[nH]n2)cc(OC)c1OC	inactive
CC(=O)N1N=C(c2ccc(Cl)cc2)CC1c1cn(-c2ccccc2)nc1-c1ccc([N+](=O)[O-])cc1 (stereo not drawn)	inactive
CCN(CC)CCCNc1ccnc2cc3ccccc3cc12	inactive
NS(=O)(=O)c1ccc(-n2nc(-c3ccc(Br)cc3)ccc2=O)cc1	inactive
C/C(=N\NC(=O)c1ccccc1O)c1cccc(/C(C)=N/NC(=O)c2ccccc2O)n1	active
CN1CCN(c2ccc(NC(=O)c3nc4ccc5[nH]ncc5c4c4c3CCCC4)cc2C(F)(F)F)CC1	inactive
COc1ccc(-c2nc3ccc4[nH]ncc4c3c3c2CCCC3)cc1B(O)O	inactive
COC1=C(Br)C(=O)C(OC)=C(Br)C1=O	active

So what was the verdict on N#Cc1ccc(NC(=O)Nc2cccc(C#N)c2)cc1 in this test? inactive

Dear all, I need the recorded test outcome for OCCOCCN(Cc1ccccn1)Cc1cc(I)cc(I)c1O , thank you. inactive

Recorded test call requested for COc1cc2ncnc(-n3ncc4cc(NC(=O)Nc5ccc(Cl)c(Cl)c5)ccc43)c2cc1OC inactive

====

# System: HL-60(TB) leukemia
# MEASUREMENT PROTOCOL: NCI-60 one-dose screen, 48 h (100 = growth as untreated, 0 = no growth, -100 = all killed)
# CONDITION DETAILS: 10 µM unless noted
About 83,000 compounds went through this panel and 20% of them were active in at least one assay; those are over-represented in the sample as a whole.
Exercise: state measured growth for each of the compounds provided.
Numbers only, in %.

CC1=C/C(O)CC(=O)Cc2nc(co2)C(=O)N2CCC=C2C(=O)OC(C(C)C)C(C)/C=C\C(=O)NC/C=C\1 (stereo not given)	56.4
c1ccc(CO[C@H]2CO[C@H]3[C@@H]2OC[C@H]3OCc2ccccc2)cc1	88.4
COc1ccc(/C=N/NC(=O)Cn2c(Cc3cccc4ccccc34)nc3ccccc32)cc1	93.2
CCC[C@H](N[C@@H](C)C(=O)N1[C@H](C(=O)O)C[C@@H]2CCCC[C@@H]21)C(=O)OCC	116

Read the next record carefully.
Respond only with growth recorded for Cc1c(C(=O)NO)sc2ncnc(Nc3ccc(NC(=S)Nc4ccccc4)cc3)c12 103

====

# Tested on: HL-60(TB) leukemia
# MEASUREMENT PROTOCOL: NCI-60 one-dose screen, 48 h
# CONDITION DETAILS: 10 µM unless noted
About 83,000 compounds went through this panel and 20% of them were active in at least one assay; those are over-represented in the sample as a whole. Active and inactive are the calls of the source. The calls were made as follows: active = growth percent below 10; inactive = the rest.
// classify into active, inactive

CC(NC(N)=S)c1ccccc1 (stereo not drawn)	inactive
O=C1OC(=O)C2C1CC=CC2c1ccccc1 (stereo not drawn)	inactive
Cc1cc(Cl)ccc1NC(=O)c1cc2ccccc2cc1O	active

I would be grateful if you could indicate the recorded call for C#Cc1ccc(-n2c(/C=C/c3ccc(Cl)c(F)c3)nc3ncccc3c2=O)cc1 . active

For CCN(CC)CCCNc1cccc2c(SCc3ccccc3)ccnc12 , which call appears in the assay record? active

Per the records of this test, what outcome belongs to Cn1c(I)c(C#C[Si](C)(C)C)c(=O)n(C(=O)c2ccccc2)c1=O ? active

// param item: CCCCn1c(=O)[nH]c(N)c([C@@H]2c3c([nH]c(=O)n(CCCC)c3=O)Oc3ccc4ccccc4c32)c1=O ; yields the recorded call inactive
